Where do these numbers come from? They come from paper PMC10385371.

Molecular target: Acetylcholinesterase (Type VI-S, from Electrophorus electricus) (Electrophorus electricus, UniProt O42275)
Sequence (O42275 24-633): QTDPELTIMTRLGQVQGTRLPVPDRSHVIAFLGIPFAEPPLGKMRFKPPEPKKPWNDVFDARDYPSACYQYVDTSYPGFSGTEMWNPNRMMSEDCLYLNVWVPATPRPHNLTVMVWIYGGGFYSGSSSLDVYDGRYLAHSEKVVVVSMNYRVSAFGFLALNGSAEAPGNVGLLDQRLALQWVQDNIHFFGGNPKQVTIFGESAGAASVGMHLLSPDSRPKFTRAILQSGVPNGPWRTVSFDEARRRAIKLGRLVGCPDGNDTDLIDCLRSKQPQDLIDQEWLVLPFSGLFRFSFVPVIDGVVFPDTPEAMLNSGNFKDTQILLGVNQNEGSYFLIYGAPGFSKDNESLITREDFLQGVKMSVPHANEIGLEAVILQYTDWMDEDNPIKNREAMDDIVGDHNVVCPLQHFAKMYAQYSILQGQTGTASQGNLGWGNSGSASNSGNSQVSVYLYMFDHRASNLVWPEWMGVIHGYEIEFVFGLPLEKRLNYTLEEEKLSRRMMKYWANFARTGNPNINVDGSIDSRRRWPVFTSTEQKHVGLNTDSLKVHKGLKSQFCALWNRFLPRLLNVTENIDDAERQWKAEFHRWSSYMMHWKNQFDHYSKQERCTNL
pIC50: −log10 of the molar value.
observable: pIC50

>  <compound>
COc1ccc(/N=C/c2ccc(OCc3cc(=O)oc4cc(OC)ccc34)cc2)cc1 [13b]

>  <result>
3.33

$$$$
>  <compound>
COc1ccc2c(COc3cccc(/C=N/c4ccc(Cl)cc4)c3)cc(=O)oc2c1 [13j]

>  <result>
3.19

$$$$
>  <compound>
COc1ccc(/N=C/c2cccc(OCc3cc(=O)oc4cc(OC)ccc34)c2)cc1 [13g]

>  <result>
2.96

$$$$

---

Molecular target: Acetylcholinesterase (Type VI-S, from Electrophorus electricus) (Electrophorus electricus)
Construct: purchased Sigma Aldrich Type VI-S (catalogue number not given)
Experiment: biochemical
Type: biochemical
Settings: read-out: IC50 against AChE
The following compounds are listed with their measured IC50 values.

>  <compound>
COc1ccc2c(COc3cc(/C=N/c4ccc(Cl)cc4)ccc3OC)cc(=O)oc2c1 [13i]

>  <IC50, µM>
712

$$$$
>  <compound>
COc1ccc(/N=C/c2ccc(OCc3cc(=O)oc4cc(OC)ccc34)c(OC)c2)cc1 [13f]

>  <IC50, µM>
365

$$$$
>  <compound>
COc1ccc2c(COc3ccc(/C=N/c4ccccc4)cc3)cc(=O)oc2c1 [13a]

>  <IC50, µM>
440

$$$$
>  <compound>
COc1ccc2c(COc3ccc(/C=N/c4ccc(Cl)cc4)cc3)cc(=O)oc2c1 [13c]

>  <IC50, µM>
232

$$$$
>  <compound>
COc1ccc2c(COc3ccc(/C=N/c4ccccc4)cc3OC)cc(=O)oc2c1 [13e]

>  <IC50, µM>
297

$$$$
